assay_details: Quantitative highthroughput screen to assess conditional lethalithy of SEM cells grown in Human Plasma-Like Medium with dialyzed fetal bovine serum (HPLM+ds) (AID 1963882); further: nearly all actives have a fitted effect of over 35% in size
particulars: SEM B-ALL cells in HPLM+ds, CellTiter-Glo viability, 48 h; series mostly up to 45.8 µM
Results filed as inconclusive are left out. Activity calls are given as the source filed them. The call rests on the fitted dose curve; in most records, active means well fitted cell-killing curve with a large enough effect; inconclusive means small, poorly fitted or top-dose-only effect, or effect the other way; inactive means no such curve, though single readings can be large or run the other way.
The reply should be one of these categories: yes (active), no (inactive)

smiles_notation | category
CNC(=O)c1ccccc1Nc1nc(Nc2ccc(N3CCOCC3)cc2OC)ncc1Cl | yes
Cc1[nH]nc2ccc(-c3cncc(OC[C@@H](N)Cc4ccccc4)c3)cc12 | yes
O=C(C=CC#Cc1cccc(NS(=O)(=O)c2ccccc2)c1)NO | yes
CC[C@H](C)C(=O)O[C@H]1C[C@@H](C)C=C2C=C[C@H](C)[C@H](CC[C@@H]3C[C@@H](O)CC(=O)O3)[C@H]21 | no

[Q] So what was the verdict on `O=C(Nc1nc2ccccc2n1CCN1CCOCC1)c1cccc([N+](=O)[O-])c1` in this test?
[A] no

---

assay_details: Viability qHTS for spleen associated tyrosine kinase inhibitor (SYKi) naive MV4-11 cells (AID 1963823); further: nearly all actives have a fitted effect of over 40% in size
particulars: MV4-11 AML viability, CellTiter-Glo luminescence, 72 h; series mostly up to 45 µM
Results filed as inconclusive are left out. Calls of active or inactive are those of the source. Calls come from the whole dose curve; as a rule, active = well fitted cell-killing curve with a large enough effect; inconclusive = small, poorly fitted or top-dose-only effect, or effect the other way; inactive = no such curve, though single readings can be large or run the other way.
Write down one outcome, taken from active, inactive

molecule | category
CCOC(=O)Nc1cc(-c2ccc(C)c(NS(C)(=O)=O)c2)nn2c(C)nnc12 | active

[Q] // param item: `N#Cc1c(Oc2ccc(F)c(NC(=O)Cc3cccc(C(F)(F)F)c3)c2)ccc2nc(NC(=O)C3CC3)sc12` ; yields the recorded call
[A] active

[Q] Per the assay record, what outcome was assigned to O=C1NC(Cc2ccc(O)cc2)C(=O)N2CCCC12 (stereo not drawn) ?
[A] inactive

[Q] Hi, do you know how C[C@]1(CO)CCC[C@]2(C)C3=C(CCC12)COC3 (stereo partly drawn) came out in this test?
[A] inactive

[Q] Recorded call for `CCOc1cc2c(c(F)c1OCC)C(=N)N(CC(=O)c1cc(N3CCOCC3)c(OC)c(C(C)(C)C)c1)C2` ?
[A] active

[Q] What classification did `COc1ccc(CNC(=O)Nc2ncc([N+](=O)[O-])s2)cc1` end up with in this test?
[A] active

[Q] Tell me the recorded outcome of this test for C=C(CC/C=C(\C)C(=O)O)C1(O)CC=C(C)CC1 (stereo not drawn) .
[A] inactive

---

Give measured activity (max response) for each item. Keep answers brief.
assay_details: Cellular viability qHTS for adrenocortical cancer (ACC) cell line SW-13 (AID 1963989);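 further: cells grown in serum-free medium with ITS supplement; on the % scale 0 is the no-effect control and ±100 the full control effect; nearly all actives have a fitted effect of over 65% in size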
particulars: SW-13 ACC cells viability, CellTiter-Glo, 48 h; hits give low values
Records with an inconclusive call do not appear.
Answers are plain numbers, in %.

Reference set (3 entries):
molecule | unit_name | observed_value
CCOc1ccc(-n2c([C@@H](C)N(Cc3cccnc3)C(=O)Cc3ccc(F)c(C(F)(F)F)c3)nc3ncccc3c2=O)cc1 | % | -7.78
CC1(C)OC(=O)Nc2ccc(Br)cc21 | % | 14.6
COc1ccc(/C(C)=C/C(=O)O)c(OC)c1 | % | 9.2

# per-item lookup of activity (max response); items listed below
1. COc1cc(/C=C(\C#N)C(=O)Nc2nnc(C(F)(F)F)s2)ccc1OCc1ccc(C(F)(F)F)cc1C(F)(F)F
2. O=C(OCCN1CCOCC1)c1cccnc1Nc1cccc(C(F)(F)F)c1
3. CC(C)(C)COc1ccc(-n2cc(C(=O)O)cn2)cc1C#N

[A]
-15.8
-11.8
0.955
